Target: Human NK1 Receptor (Homo sapiens)
Construct: endogenous in cells; host or cells: Human lymphoma IM9 cells (whole cells)
Assay: In Vitro Human NK1 Receptor Binding Assay ([125I]Bolton-Hunter substance P displacement, IM9 cells)
Conditions: human NK1 receptor, IM9 cells, [125I]Bolton-Hunter substance P; read-out: IC50 (nM) hNK1
measurement.kind: IC50 (nM)

compound: CC(Cc1c[nH]c2ccccc12)(NCc1cc2ccccc2o1)C(=O)NCC1(c2ccco2)CCC1 (stereo not shown)
assay.system: Human NK1 Receptor (Homo sapiens)
relation.operator: >
result.value: 10000
--
compound: Cc1cc(C)c(CNC(=O)C(C)(Cc2c[nH]c3ccccc23)NCc2cc3ccccc3o2)cn1 (stereo not shown)
assay.system: Human NK1 Receptor (Homo sapiens)
relation.operator: =
result.value: 6020
--
compound: CC(Cc1c[nH]c2ccccc12)(NCc1cc2ccccc2o1)C(=O)NCCCN1CCN(c2ccccn2)CC1 (stereo not shown)
assay.system: Human NK1 Receptor (Homo sapiens)
relation.operator: >
result.value: 10000
--
compound: CC(Cc1c[nH]c2ccccc12)(NCc1cc2ccccc2o1)C(=O)NCC(O)c1ccccc1 (stereo not shown) [compound 73]
assay.system: Human NK1 Receptor (Homo sapiens)
relation.operator: =
result.value: 1230
--
compound: CC(Cc1c[nH]c2ccccc12)(NCc1cc2ccccc2o1)C(=O)NCCN1CCOC1=O (stereo not shown)
assay.system: Human NK1 Receptor (Homo sapiens)
relation.operator: >
result.value: 10000
--
compound: CC(Cc1c[nH]c2ccccc12)(NCc1cc2ccccc2o1)C(=O)NCC(CC(=O)O)c1ccc(Cl)cc1 (stereo not shown)
assay.system: Human NK1 Receptor (Homo sapiens)
relation.operator: >
result.value: 10000
--
compound: CC(NC(=O)C(C)(Cc1c[nH]c2ccccc12)NCc1cc2ccccc2o1)c1cccc(N)c1 (stereo not shown)
assay.system: Human NK1 Receptor (Homo sapiens)
relation.operator: =
result.value: 364
--
compound: CC(Cc1c[nH]c2ccccc12)(NCc1cc2ccccc2o1)C(=O)NC(CO)Cc1c[nH]cn1 (stereo not shown)
assay.system: Human NK1 Receptor (Homo sapiens)
relation.operator: >
result.value: 10000
--
compound: CC(Cc1c[nH]c2ccccc12)(NCc1cc2ccccc2o1)C(=O)NCCc1cccs1 (stereo not shown)
assay.system: Human NK1 Receptor (Homo sapiens)
relation.operator: =
result.value: 153
--
compound: COC(=O)C(Cc1c[nH]cn1)NC(=O)C(C)(Cc1c[nH]c2ccccc12)NCc1cc2ccccc2o1 (stereo not shown)
assay.system: Human NK1 Receptor (Homo sapiens)
relation.operator: =
result.value: 1760
--
compound: Cc1ccccc1CNC(=O)C(C)(Cc1c[nH]c2ccccc12)NCc1cc2ccccc2o1 (stereo not shown)
assay.system: Human NK1 Receptor (Homo sapiens)
relation.operator: =
result.value: 455
--
compound: CC(Cc1c[nH]c2ccccc12)(NCc1cc2ccccc2o1)C(=O)NC1CCCc2ccccc21 (stereo not shown)
assay.system: Human NK1 Receptor (Homo sapiens)
relation.operator: >
result.value: 10000
--
compound: CC(NC(=O)C(C)(Cc1c[nH]c2ccccc12)NCc1cc2ccccc2o1)c1ccccc1N (stereo not shown)
assay.system: Human NK1 Receptor (Homo sapiens)
relation.operator: =
result.value: 1620
--
compound: CC(Cc1c[nH]c2ccccc12)(NCc1cc2ccccc2o1)C(=O)NCc1cccs1 (stereo not shown)
assay.system: Human NK1 Receptor (Homo sapiens)
relation.operator: =
result.value: 100
--
compound: CN(C)CCNC(=O)C(C)(Cc1c[nH]c2ccccc12)NCc1cc2ccccc2o1 (stereo not shown)
assay.system: Human NK1 Receptor (Homo sapiens)
relation.operator: =
result.value: 3520
--
compound: COc1ccc(C(C)NC(=O)C(C)(Cc2c[nH]c3ccccc23)NCc2cc3ccccc3o2)cc1 (stereo not shown)
assay.system: Human NK1 Receptor (Homo sapiens)
relation.operator: =
result.value: 31

====

log10 of IC50 listing for selected compounds.
Molecular target: Human NK1 Receptor (Homo sapiens, UniProt P25103)
Construct: endogenous in cells; host or cells: Human lymphoma IM9 cells (whole cells)
Sequence (P25103 whole entry): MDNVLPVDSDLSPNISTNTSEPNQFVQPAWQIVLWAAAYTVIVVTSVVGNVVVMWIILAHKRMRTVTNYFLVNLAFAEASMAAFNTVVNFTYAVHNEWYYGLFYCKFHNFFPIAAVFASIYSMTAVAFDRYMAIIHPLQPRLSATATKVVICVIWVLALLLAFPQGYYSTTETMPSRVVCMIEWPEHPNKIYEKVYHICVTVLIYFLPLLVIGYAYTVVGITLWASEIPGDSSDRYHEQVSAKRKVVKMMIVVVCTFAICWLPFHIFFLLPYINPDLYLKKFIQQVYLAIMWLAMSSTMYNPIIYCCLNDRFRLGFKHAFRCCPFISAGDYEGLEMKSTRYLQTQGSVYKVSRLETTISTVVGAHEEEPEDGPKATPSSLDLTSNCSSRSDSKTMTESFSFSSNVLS
Test: In Vitro Human NK1 Receptor Binding Assay ([125I]Bolton-Hunter substance P displacement, IM9 cells)
Settings: Table 5; [125I]Bolton-Hunter substance P displacement, human IM9 cells; read-out: IC50 (nM) hNK1
measurement.kind: log10 of IC50 (log10 of the value in nM)

compound: CCCc1nc(-n2cccc2)c(CNC(Cc2c[nH]c3ccccc23)C(=O)NC(C)c2ccccc2)[nH]1 (stereo not shown) [compound 375]
result.value: 2.22

compound: CC(NC(=O)C(Cc1c[nH]c2ccccc12)NCc1ccc(OCCCC(C)(C)C(=O)O)cc1)c1ccccc1 (stereo not shown) [compound 364]
result.value: 3.10

compound: CC(NC(=O)C(Cc1c[nH]c2ccccc12)NCc1ccco1)c1ccccc1 (stereo not shown) [compound 405]
result.value: 2.63

compound: CC(NC(=O)C(Cc1c[nH]c2ccccc12)NCc1ccc(-c2ccc([N+](=O)[O-])cc2)o1)c1ccccc1 (stereo not shown) [compound 390]
result.value: 1.70

compound: CC(NC(=O)C(Cc1c[nH]c2ccccc12)NCc1ccc2ccccc2c1)c1ccccc1 (stereo not shown) [compound 394]
result.value: 2.20

compound: CC(NC(=O)C(Cc1c[nH]c2ccccc12)NCc1ccc(N2CCOCC2)cc1Cl)c1ccccc1 (stereo not shown) [compound 368]
result.value: 3.35

====

Biological target: Human NK1 Receptor (Homo sapiens, UniProt P25103)
Construct: endogenous in cells; host or cells: Human lymphoma IM9 cells (whole cells)
Assay: In Vitro Human NK1 Receptor Binding Assay ([125I]Bolton-Hunter substance P displacement, IM9 cells)
Conditions: Table 5; [125I]Bolton-Hunter substance P displacement, human IM9 cells; read-out: IC50 (nM) hNK1
Entries whose IC50 is below 1000 nM take condition met; entries at or above 1000 nM take condition not met.

compound: CC(NC(=O)C(Cc1c[nH]c2ccccc12)NCc1cccs1)c1ccccc1 (centres unmarked) [compound 396]
category: condition not met
//
compound: CC=C(C)CCC=C(C)CNC(Cc1c[nH]c2ccccc12)C(=O)NC(C)c1ccccc1 (centres unmarked) [compound 389]
category: condition not met
//
compound: Cc1c(-c2ccccc2)occ(CNC(Cc2c[nH]c3ccccc23)C(=O)NC(C)c2ccccc2)c1=O (centres unmarked) [compound 373]
category: condition met
//
compound: CC(NC(=O)C(Cc1c[nH]c2ccccc12)NCc1coc2ccccc2c1=O)c1ccccc1 (centres unmarked) [compound 371]
category: condition not met
//
compound: CC(NC(=O)C(Cc1c[nH]c2ccccc12)NCc1ccc(-c2ccccc2)cc1)c1ccccc1 (centres unmarked) [compound 385]
category: condition not met
//
compound: CC(NC(=O)C(Cc1c[nH]c2ccccc12)NCc1cc(F)cc(F)c1)c1ccccc1 (centres unmarked) [compound 399]
category: condition met
//
compound: COc1ccc(CNC(Cc2c[nH]c3ccccc23)C(=O)NC(C)c2ccccc2)cc1OC (centres unmarked) [compound 397]
category: condition not met
//
compound: CC(NC(=O)C(Cc1c[nH]c2ccccc12)NCc1ccccc1OCc1cccnc1)c1ccccc1 (centres unmarked) [compound 361]
category: condition met

====

Target: Human NK1 Receptor (Homo sapiens)
Construct: endogenous in cells; host or cells: Human lymphoma IM9 cells (whole cells)
Assay: In Vitro Human NK1 Receptor Binding Assay ([125I]Bolton-Hunter substance P displacement, IM9 cells)
Settings: human NK1 receptor, IM9 cells, [125I]Bolton-Hunter substance P; read-out: IC50 (nM) hNK1
Method: They have been evaluated in an NK1-receptor binding assay which is described below. Human lymphoma IM9 cells were grown in RPMI 1640 culture medium supplemented with 10% fetal calf serum and 2 mM glutamine and maintained under an atmosphere of 5% CO2. […] Filters were washed with 6×1 ml ice-cold Tris HCl (50 mM, pH 7.4) and radioactivity bound determined using a gamma couter. Results were analyzed using iterative curve fitting procedures in RS1 or Graphpad Inplot.
Each entry below lists one item and its recorded IC50 value.
measurement.kind: IC50

molecule: CC(Cc1c[nH]c2ccccc12)(NCc1cc2ccccc2o1)C(=O)NCCN1CCNCC1 (stereo not shown) [compound 147]
measurement.kind: IC50
result.value: > 10000 nM

molecule: CC(Cc1c[nH]c2ccccc12)(NCc1cc2ccccc2o1)C(=O)NCC1CCCCC1O (stereo not shown) [compound 49]
measurement.kind: IC50
result.value: 1550 nM

molecule: CC(Cc1c[nH]c2ccccc12)(NCc1cc2ccccc2o1)C(=O)NC1NC(=O)c2ccccc21 (stereo not shown) [compound 85]
measurement.kind: IC50
result.value: 2440 nM

molecule: CC(Cc1c[nH]c2ccccc12)(NCc1cc2ccccc2o1)C(=O)NCc1ccccc1Cl (stereo not shown) [compound 189]
measurement.kind: IC50
result.value: 1130 nM

====

Reported log10 of IC50 values follow for various compounds
Molecular target: Human NK1 Receptor (Homo sapiens, UniProt P25103)
Construct: endogenous in cells; host or cells: Human lymphoma IM9 cells (whole cells)
Test: In Vitro Human NK1 Receptor Binding Assay ([125I]Bolton-Hunter substance P displacement, IM9 cells)
Settings: human NK1 receptor, IM9 cells, [125I]Bolton-Hunter substance P; read-out: IC50 (nM) hNK1
measurement.kind: log10 of IC50 (log10 of the value in nM)

compound: CC(Cc1c[nH]c2ccccc12)(NCc1cc2ccccc2o1)C(=O)NCc1ccc(Cl)cc1F (stereo not drawn)
log10 of IC50: 2.65
//
compound: CC(Cc1c[nH]c2ccccc12)(NCc1cc2ccccc2o1)C(=O)NCc1cccnc1 (stereo not drawn)
log10 of IC50: 2.74
//
compound: CC(Cc1c[nH]c2ccccc12)(NCc1cc2ccccc2o1)C(=O)NCCc1ccccn1 (stereo not drawn)
log10 of IC50: 2.96
//
compound: CC(Cc1c[nH]c2ccccc12)(NCc1cc2ccccc2o1)C(=O)NCc1c(F)cccc1F (stereo not drawn)
log10 of IC50: 3.55
//
compound: CC(Cc1c[nH]c2ccccc12)(NCc1cc2ccccc2o1)C(=O)NCc1cnc(N)nc1N (stereo not drawn)
log10 of IC50: 3.77
//
compound: CC(NC(=O)C(C)(Cc1c[nH]c2ccccc12)NCc1cc2ccccc2o1)C(C)(C)C (stereo not drawn)
log10 of IC50: 3.06
//
compound: CC(Cc1c[nH]c2ccccc12)(NCc1cc2ccccc2o1)C(=O)NCCc1ccco1 (stereo not drawn)
log10 of IC50: 2.19
//
compound: CC(Cc1c[nH]c2ccccc12)(NCc1cc2ccccc2o1)C(=O)NCc1ccc2c(c1)OCO2 (stereo not drawn)
log10 of IC50: 1.97
//
compound: CC(Cc1c[nH]c2ccccc12)(NCc1cc2ccccc2o1)C(=O)NCc1ccc(F)cc1 (stereo not drawn)
log10 of IC50: 1.79
//
compound: Cc1cccc(CNC(=O)C(C)(Cc2c[nH]c3ccccc23)NCc2cc3ccccc3o2)c1C (stereo not drawn)
log10 of IC50: 2.92
//
compound: COc1cc(C(O)CNC(=O)C(C)(Cc2c[nH]c3ccccc23)NCc2cc3ccccc3o2)ccc1O (stereo not drawn)
log10 of IC50: 3.55
//
compound: COc1ccc(CNC(=O)C(C)(Cc2c[nH]c3ccccc23)NCc2cc3ccccc3o2)cc1F (stereo not drawn)
log10 of IC50: 2.12
//
compound: CC(Cc1c[nH]c2ccccc12)(NCc1cc2ccccc2o1)C(=O)NCc1cc(Cl)sc1Cl (stereo not drawn)
log10 of IC50: 2.45
//
compound: CC(Cc1c[nH]c2ccccc12)(NCc1cc2ccccc2o1)C(=O)NCCc1ccc(N)cc1 (stereo not drawn)
log10 of IC50: 3.51
//
compound: CC(Cc1c[nH]c2ccccc12)(NCc1cc2ccccc2o1)C(=O)NCC1CCCO1 (stereo not drawn) [compound 135]
log10 of IC50: 3.08
//
compound: CC(C)NC(=O)C(C)(Cc1c[nH]c2ccccc12)NCc1cc2ccccc2o1 (stereo not drawn)
log10 of IC50: 3.36
//
compound: CC(Cc1c[nH]c2ccccc12)(NCc1cc2ccccc2o1)C(=O)NCC1(c2cccnc2)CCC1 (stereo not drawn)
log10 of IC50: 3.58
//
compound: CC(Cc1c[nH]c2ccccc12)(NCc1cc2ccccc2o1)C(=O)NCc1cccc(F)c1 (stereo not drawn)
log10 of IC50: 1.57
//
compound: CC(NC(=O)C(C)(Cc1c[nH]c2ccccc12)NCc1cc2ccccc2o1)c1ccsc1 (stereo not drawn)
log10 of IC50: 1.28
//
compound: CC(CNC(=O)C(C)(Cc1c[nH]c2ccccc12)NCc1cc2ccccc2o1)c1ccccc1 (stereo not drawn) [compound 150]
log10 of IC50: 2.42
//
compound: CC(Cc1c[nH]c2ccccc12)(NCc1cc2ccccc2o1)C(=O)NCc1cc(C(F)(F)F)cc(C(F)(F)F)c1 (stereo not drawn)
log10 of IC50: 2.25
